Read-out: Transforming growth factor beta 1 (TGFb1), TGFB1 (gene 7040)
EXPERIMENT_SUMMARY: BSK_KF3CT_TGFb1: BioMAP Diversity Plus: KF3CT Assay for Transforming growth factor beta 1 (TGFb1) Biomarker Activity (AID 2283072)
EXPERIMENTAL_CONTEXT: primary human keratinocytes with fibroblasts; actives raise or lower the signal
Active and inactive are the calls of the source. Rule for the calls: active = hit-call score of the fitted dose curve at least 0.9, where 1 is the maximum; inactive = score below 0.9.
MEASURED_PROPERTY: AC50

{"MOLECULE": "CC(=O)c1c(C)c([N+](=O)[O-])c(C(C)(C)C)c([N+](=O)[O-])c1C", "MEASURED_PROPERTY": "AC50", "VALUE_REPORTED": "inactive"}
{"MOLECULE": "C1=CC2C3C=CC(C3)C2C1 (stereo not drawn)", "MEASURED_PROPERTY": "AC50", "VALUE_REPORTED": "inactive"}
{"MOLECULE": "c1ccc(CCc2ccccc2)cc1", "MEASURED_PROPERTY": "AC50", "VALUE_REPORTED": "12.8 µM (active)"}

FYI, the data here is from PubChem BioAssay (EPA / NIEHS).
